Test system: BALB/c mice
Test: Transfection efficiency: in vivo bioluminescence of luciferase mRNA encapsulated by different LNP
Details: 10 μg/mice, 6 h after administration
// NB: equality with 3000 counts as NO; only Average fluorescence intensity, Liver (tail vein injection) strictly below is YES

Answered examples (5):
compound	category
CCCCCCCCCCCOC(=O)CCCCCN(CCCO)CCCCCC(=O)OCCCCCCCCCCC	YES
CCCCCCCCCCCOC(=O)CCCCCN(CCO)CCCCCC(=O)OCCCCCCCCCCC [A3, reference compound]	YES
CCCCCCCCCCCOC(=O)CCCCCN(CCCO)CCCCCCCC(=O)OC(CCCCCCCC)CCCCCCCC [A4, reference compound]	NO
CCCCC/C=C/C/C=C/CCCCCCCCN(CCO)CCCCCCCC(=O)OC(CCCCCCCC)CCCCCCCC [A8, reference compound]	NO
CCCCC/C=C/C/C=C/CCCCCCCCN(CCCO)CCCCCCCC(=O)OC(CCCCCCCC)CCCCCCCC	NO

API: the following record is the query input.
Input: Criterion: Average fluorescence intensity, Liver (tail vein injection) strictly below 3000. Is it met by CCCCCCCCCCCOC(=O)CCCCCN(CCO)CCCCCCCC(=O)OC(CCCCCCCC)CCCCCCCC [A33, reference compound] ?
Output: NO

* * *

Type: physicochemical
Conditions: lipid nanoparticle of the ionizable lipid (ionizable lipid/phospholipid/PEG lipid/structural lipid 50/10/1.5/38.5 %) with mRNA, Table 1
Please provide measured Size (nm) for the entries that follow.
Numbers only, in nm.

Worked examples, 5 molecules total:
molecule	measured
CCCCC/C=C/C/C=C/CCCCCCCCN(CCCO)CCCCCCCC(=O)OC(CCCCCCCC)CCCCCCCC	105.1
CCCCCCCCC(CCCCCCCC)OC(=O)CCCCCCCN(CCCO)CCCCCCCC(=O)OC(COCCCCCC)COCCCCCC	109.5
CCCCCCOCC(COCCCCCC)OC(=O)CCCCCCCN(CCCO)CCCCCCCC(=O)OC(COCCCCCC)COCCCCCC	110.1
CCCCC/C=C\C/C=C\CCCCCCCCC(CCCCCCCC/C=C\C/C=C\CCCCC)OC(=O)CCCN(C)C [MC3, reference compound]	86.7
CCCCCCCCC(CCCCCCCC)OC(=O)CCCCCCCN(CCO)CCCCCCCC(=O)OC(CCCCCCCC)CCCCCCCC [A2, reference compound]	145.5

Input: Report measured Size (nm); entry is CCCCC/C=C/C/C=C/CCCCCCCCN(CCO)CCCCCCCC(=O)OC(COCCCCCC)COCCCCCC
Output: 121.6

* * *

Format: physicochemical
Settings: lipid nanoparticle of the ionizable lipid (ionizable lipid/phospholipid/PEG lipid/structural lipid 50/10/1.5/38.5 %) with mRNA, Table 1
Please provide measured Size (nm) for the entries that follow.
Numbers only, in nm.

Worked examples, 5 compounds total:
compound	readout_units	Size (nm)
CCCCCCOCC(COCCCCCC)OC(=O)CCCCCCCN(CCCCCCCC(=O)OC(COCCCCCC)COCCCCCC)CCCNc1c(NC)c(=O)c1=O	nm	91.19
CCCCCCOCC(COCCCCCC)OC(=O)CCCCCCCN(CCCCCCCC(=O)OC(COCCCCCC)COCCCCCC)CCCNc1c(NCCCNc2c(NC)c(=O)c2=O)c(=O)c1=O	nm	126.4
CCCCCCCCCCCCCCCCN(CCO)CCCCCC(=O)OCCCCCCCCCCC	nm	127.7
CCCCCCCCCCCOC(=O)CCCCCN(CCCO)CCCCCCCC(=O)OC(CCCCCCCC)CCCCCCCC [A4, reference compound]	nm	131.1
CCCCCCOCC(COCCCCCC)(COCCCCCC)COC(=O)CCCCCCCN(CCO)CCCCCCCC(=O)OCC(COCCCCCC)(COCCCCCC)COCCCCCC	nm	78.69

Hi team, please reply with Size (nm) for each item in this list.
1. CCCCC/C=C/C/C=C/CCCCCCCCN(CCO)CCCCCCCC(=O)OC(CCCCCCCC)CCCCCCCC [A8, reference compound]
2. CCCCCCCCCCCOC(=O)CCCCCN(CCO)CCCCCCCC(=O)OCC(COCCCCCC)(COCCCCCC)COCCCCCC

Output:
1: 142.2; 2: 74.63
